biological target: β-secretase (BACE-1) (Homo sapiens, UniProt P56817); construct: purchased Sigma–Aldrich; assay: biochemical; conditions: pIC50 = −logIC50; reported with SD; read-out: BACE-1 pIC50 Observed (converted)
Sequence (P56817 46-501): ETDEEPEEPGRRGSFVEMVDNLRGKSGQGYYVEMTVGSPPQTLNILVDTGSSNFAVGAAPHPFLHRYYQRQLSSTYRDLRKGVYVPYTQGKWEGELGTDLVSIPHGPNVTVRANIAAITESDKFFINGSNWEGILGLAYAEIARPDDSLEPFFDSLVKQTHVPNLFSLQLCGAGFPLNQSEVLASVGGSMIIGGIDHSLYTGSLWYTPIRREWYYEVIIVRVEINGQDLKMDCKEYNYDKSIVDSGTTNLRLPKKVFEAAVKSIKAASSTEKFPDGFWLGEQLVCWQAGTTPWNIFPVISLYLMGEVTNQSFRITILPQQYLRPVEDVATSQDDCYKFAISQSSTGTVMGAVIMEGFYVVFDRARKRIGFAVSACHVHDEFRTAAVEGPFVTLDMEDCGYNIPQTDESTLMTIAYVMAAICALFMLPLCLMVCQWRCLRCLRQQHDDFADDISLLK
Give measured IC50 for each item. Keep answers brief.
Give bare numbers, in nM.

Example results:
>>> endpoint_value("CN(C)CCCN1c2ccccc2Sc2ccc(C(=O)/C=C/c3ccc(N(C)C)cc3)cc21")
347
>>> endpoint_value("COc1ccc(/C=C/C(=O)c2ccc3c(c2)N(CCCN(C)C)c2ccccc2S3)cc1")
4470
>>> endpoint_value("CN(C)CCCN1c2ccccc2Sc2ccc(C(=O)/C=C/c3ccc(Cl)cc3Cl)cc21")
501
>>> endpoint_value("COc1cc(/C=C/C(=O)c2ccc3c(c2)N(CCCN(C)C)c2ccccc2S3)cc(OC)c1OC")
155

Dear colleague, could you send me IC50 for each of the items below? Thanks.
1. COc1cccc(/C=C/C(=O)c2ccc3c(c2)N(CCCN(C)C)c2ccccc2S3)c1
2. CN(C)CCCN1c2ccccc2Sc2ccc(C(=O)/C=C/c3ccc(OCc4ccccc4)cc3)cc21
3. CN(C)CCCN1c2ccccc2Sc2ccc(C(=O)/C=C/c3ccccc3)cc21
4. CN(C)CCCN1c2ccccc2Sc2ccc(C(=O)/C=C/c3ccc(F)cc3)cc21
5. CN(C)CCCN1c2ccccc2Sc2ccc(C(=O)/C=C/c3c(F)cccc3Cl)cc21
6. CN(C)CCCN1c2ccccc2Sc2ccc(C(=O)/C=C/c3ccc(Cl)cc3)cc21
7. CN(C)CCCN1c2ccccc2Sc2ccc(C(=O)/C=C/c3cccc(Br)c3)cc21
8. CN(C)CCCN1c2ccccc2Sc2ccc(C(=O)/C=C/c3ccccc3C(F)(F)F)cc21

Solution:
1. 3020
2. 3020
3. 6310
4. 3720
5. 447
6. 1230
7. 2000
8. 398

Exercise: Input CN(C)CCCN1c2ccccc2Sc2ccc(C(=O)/C=C/c3ccccc3Cl)cc21 , output reported IC50.
Solution: 2950

###

Give measured IC50 for each item. Keep answers brief.
target: β-secretase (BACE-1) (Homo sapiens); construct: purchased Sigma–Aldrich; test: biochemical; settings: reported with SD; read-out: BACE-1 IC50
Answer with the number, then the unit.

>>> endpoint_value("CN(C)CCCN1c2ccccc2Sc2ccc(C(=O)/C=C/c3ccc(N(C)C)cc3)cc21 [AC12]")
"0.35 µM"
>>> endpoint_value("CN(C)CCCN1c2ccccc2Sc2ccc(C(=O)/C=C/c3ccccc3Cl)cc21 [AC8]")
"2.97 µM"
>>> endpoint_value("CN(C)CCCN1c2ccccc2Sc2ccc(C(=O)/C=C/c3ccc(Cl)cc3)cc21 [AC5]")
"1.24 µM"
>>> endpoint_value("COc1cc(/C=C/C(=O)c2ccc3c(c2)N(CCCN(C)C)c2ccccc2S3)cc(OC)c1OC [AC4]")
"0.16 µM"
>>> endpoint_value("COc1cccc(/C=C/C(=O)c2ccc3c(c2)N(CCCN(C)C)c2ccccc2S3)c1 [AC2]")
"3 µM"
>>> endpoint_value("CN(C)CCCN1c2ccccc2Sc2ccc(C(=O)/C=C/c3ccc(OCc4ccccc4)cc3)cc21 [AC13]")
"3.03 µM"
>>> endpoint_value("COc1ccc(/C=C/C(=O)c2ccc3c(c2)N(CCCN(C)C)c2ccccc2S3)cc1 [AC3]")
"4.48 µM"
>>> endpoint_value("CN(C)CCCN1c2ccccc2Sc2ccc(C(=O)/C=C/c3ccccc3)cc21 [AC1]")
"6.34 µM"
>>> endpoint_value("CN(C)CCCN1c2ccccc2Sc2ccc(C(=O)/C=C/c3c(F)cccc3Cl)cc21 [AC7]")
"0.45 µM"
>>> endpoint_value("CN(C)CCCN1c2ccccc2Sc2ccc(C(=O)/C=C/c3ccc(F)cc3)cc21 [AC9]")
"3.72 µM"

Dear colleague, could you send me IC50 for each of the items below? Thanks.
1. CN(C)CCCN1c2ccccc2Sc2ccc(C(=O)/C=C/c3ccccc3C(F)(F)F)cc21 [AC11]
2. CN(C)CCCN1c2ccccc2Sc2ccc(C(=O)/C=C/c3cccc(Br)c3)cc21 [AC10]
3. CN(C)CCCN1c2ccccc2Sc2ccc(C(=O)/C=C/c3ccc(Cl)cc3Cl)cc21 [AC6]

Solution:
1. 0.4 µM
2. 1.99 µM
3. 0.5 µM
